procedure details: method code SF-HPLC, from DOI: 10.1016/j.ejps.2004.08.007, PMID: 15567286
cond: pH 7.4
Overview of recorded logD for various molecules
Kindly provide the number alone.

Requested read-out: logD. Entry: "COC(=O)Nc1cc[nH]c(=O)n1"
-0.55

Requested read-out: logD. Entry: "CCCCCCCCOC(=O)Nc1cc[nH]c(=O)n1"
3.3

Requested read-out: logD. Entry: "CCCCOC(=O)Nc1cc[nH]c(=O)n1"
1.1

Requested read-out: logD. Entry: "CCCCCCOC(=O)Nc1cc[nH]c(=O)n1"
2.3

Requested read-out: logD. Entry: "O=C(Nc1cc[nH]c(=O)n1)OC12CC3CC(CC(C3)C1)C2"
2.9

---

procedure details: method code SF, from DOI: 10.1016/j.ejps.2004.08.007, PMID: 15567286
property measured: logP
Kindly provide the number alone.

Requested read-out: logP. Entry: "O=Cc1ccc(C(=O)O)cc1"
1.52

---

procedure details: method code SF-HPLC, from DOI: 10.1016/j.ejps.2004.08.007, PMID: 15567286
cond: pH 7.4
Overview of recorded logD for various compounds
Kindly provide the number alone.

Observe how each entry below is paired with its result.
mol	observed measurement
O=C(Nc1cc[nH]c(=O)n1)OCc1ccccc1	1.3
CCOC(=O)Nc1cc[nH]c(=O)n1	-0.09
CC(C)COC(=O)Nc1cc[nH]c(=O)n1	1.1

// next item, logD requested
Requested read-out: logD. Entry: "CC(C)(C)COC(=O)Nc1cc[nH]c(=O)n1"
1.5

Each recorded value in this set is attributed to the SangsterLogP compilation.
